# Tested on: biotinyl-Trp-oxazolone
# method_notes: self-aminoacylation, catalytic enhancement (BWO) (fold over background); higher = more active; k-Seq, kA / k0A0; sequences stand for … in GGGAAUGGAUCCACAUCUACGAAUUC…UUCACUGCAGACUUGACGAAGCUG
This sample holds only a part of the variants without activity.
Each record here notes measured self-aminoacylation.
The reply should be a number, written without any unit.

Consider the following illustrative entries.
{"columns": ["record_sequence", "self-aminoacylation"],
 "data": [
  ["AUUAUCCUGGUCAUUGAGUGA [Fam2.1 aminoacylation ribozyme variant]", 13.9],
  ["AUUCACCAAGUUCAUCGGGUG [Fam2.2 aminoacylation ribozyme variant]", 4.14],
  ["CUACUACAAACAACCGGUCUG [Fam1A.1 aminoacylation ribozyme variant]", 0.954],
  ["CUACUUCAAACAAACGGUCUU [Fam1A.1 aminoacylation ribozyme variant]", 0.74],
  ["CUUCCCCUAGGUCAUCGGGUG [Fam2.2 aminoacylation ribozyme variant]", 7.71],
  ["CUACUCUAAACAAUCGGUCUG [Fam1A.1 aminoacylation ribozyme variant]", 0.651],
  ["CUACUUCAAACAAACGAUCUG [Fam1A.1 aminoacylation ribozyme variant]", 0.336],
  ["AGGUAUGCUAAUAGUCGCAAG [Fam3.1 aminoacylation ribozyme variant]", 3.41],
  ["UUUCGCCUAGGUCAUCGGGUG [Fam2.2 aminoacylation ribozyme variant]", 7.75],
  ["CUUCUUCAAACAAUCUGUCUG [Fam1A.1 aminoacylation ribozyme variant]", 1.15]
]}

Qu. Please report the recorded self-aminoacylation for AUUCAACUAGGUCACCGGGUG [Fam2.2 aminoacylation ribozyme variant] .
Ans. 5.05

Qu. Same again, this time with CAACACUUCAACCAAUCGGUC [Fam1B.1 aminoacylation ribozyme variant]
Ans. 28.2

Qu. Same again, this time with AAGUUUGCUAAUAGUGGCACG [Fam3.1 aminoacylation ribozyme variant]
Ans. 0.733

Qu. Same again, this time with AUUUCCCUGGUCAUCGAGGGA [Fam2.1 aminoacylation ribozyme variant]
Ans. 1.65

Qu. Same again, this time with CUACUUCAAACCAUCGGUCAG [Fam1A.1 aminoacylation ribozyme variant]
Ans. 0.762

Qu. Same again, this time with AAGUUUGUUAAUAGGCGCAAG [Fam3.1 aminoacylation ribozyme variant]
Ans. 0.763

Qu. Same again, this time with CUACUUCAAACAAUCGGUCGA [Fam1A.1 aminoacylation ribozyme variant]
Ans. 6.82

Qu. Same again, this time with CCACACUUCAAGCAAACGAUC [Fam1B.1 aminoacylation ribozyme variant]
Ans. 0.585

* * *

# System: biotinyl-Phe-oxazolone
# method_notes: self-aminoacylation, catalytic enhancement (BFO) (fold over background); higher = more active; k-Seq, kA / k0A0; sequences stand for … in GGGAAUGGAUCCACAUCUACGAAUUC…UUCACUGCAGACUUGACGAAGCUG
This sample holds only a part of the variants without activity.
Entries are sorted into classes by self-aminoacylation as follows: lower band: < 3; central band: ≥ 3 and < 30; upper band: ≥ 30

Past entries and their recorded results:
{"columns": ["record_sequence", "qualitative_label"],
 "data": [
  ["AUUCAUCAAGGUCAUCGGGUG [Fam2.2 aminoacylation ribozyme variant]", "upper band"],
  ["CCAAACUUCAAGCAAUCGGAC [Fam1B.1 aminoacylation ribozyme variant]", "lower band"],
  ["AAGUAUGCUAAUAGUCGUAAG [Fam3.1 aminoacylation ribozyme variant]", "upper band"]
]}

Qu. Please indicate the class for GCUCACUUCAAGCAAUCGGUC [Fam1B.1 aminoacylation ribozyme variant] based on its self-aminoacylation.
Ans. central band

Qu. Same again, this time with AUUCACCUAGGUUAUCGGGUU [Fam2.2 aminoacylation ribozyme variant]
Ans. central band

Qu. Same again, this time with GUUCACCUAGGUCAUCCGGUG [Fam2.2 aminoacylation ribozyme variant]
Ans. upper band

Qu. Same again, this time with AUUACCAUGGUCAUCGAGUGG [Fam2.1 aminoacylation ribozyme variant]
Ans. lower band

Qu. Same again, this time with CUUCACCUAGGUCAUCCGGUG [Fam2.2 aminoacylation ribozyme variant]
Ans. upper band

Qu. Same again, this time with AAGUUUUCUUAUAGUCGCAAG [Fam3.1 aminoacylation ribozyme variant]
Ans. central band

Qu. Same again, this time with AUUAUACUGGUCAUCGAGUGA [Fam2.1 aminoacylation ribozyme variant]
Ans. central band

Qu. Same again, this time with AUUCACCUAGCUCAUGGGGUG [Fam2.2 aminoacylation ribozyme variant]
Ans. upper band

Qu. Same again, this time with AUUACCGUGGUGAUCGAGUGA [Fam2.1 aminoacylation ribozyme variant]
Ans. central band

Qu. Same again, this time with CCACACUUCUGGCAAUCGGUC [Fam1B.1 aminoacylation ribozyme variant]
Ans. lower band

Qu. Same again, this time with CUACUUCAAAAAAUCGGUCUU [Fam1A.1 aminoacylation ribozyme variant]
Ans. central band

Qu. Same again, this time with CCACACUUUCAGCAAUCGGUC [Fam1B.1 aminoacylation ribozyme variant]
Ans. lower band
